Values were extracted from paper PMC9103804.

Overview of reported Kd across a group of binders:
# target entity: T1, CIRV p19 (Carnation Italian ringspot virus, UniProt Q66104 1-172)
# T1 sequence: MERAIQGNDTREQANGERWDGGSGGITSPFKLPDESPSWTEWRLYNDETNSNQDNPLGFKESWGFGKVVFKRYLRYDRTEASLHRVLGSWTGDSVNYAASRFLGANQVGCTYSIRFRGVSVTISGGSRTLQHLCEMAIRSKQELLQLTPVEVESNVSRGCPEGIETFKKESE
# test summary: EMSA
# assay context: protein: recombinant; tags: GST tag removed (PreScission, pGEX-6P-1); chain copies: 2; label: 5'-32P; 3' overhangs 2 nt
value kind: Kd (nM)

> print(dat)
                                     binder  value.kind  measured
1  AtmiR168a variant 6 (dsRNA, 5'-phosphate) RNA 1: UCGCUUGGUGCAGGUCGGGAA RNA 2: CCCGACCUGCACCAAGCGAAU          Kd      0.34
2  gf698 siRNA (dsRNA, 5'-phosphate) RNA 1: UAGUUCAUCCAUGCCAUGUGU RNA 2: ACAUGGCAUGGAUGAACUAUA          Kd      0.06
3  miR162-0 (dsRNA, 5'-phosphate) RNA 1: UCGAUAAACCUCUGCAUCCAG RNA 2: GGAUGCAGAGGUUCAUCGAUC          Kd      0.15
